Measured values drawn from paper PMC10377034 for this set.

Biological target: recombinant hVDR-LBD (Homo sapiens, UniProt P11473)
Sequence (P11473 140-427): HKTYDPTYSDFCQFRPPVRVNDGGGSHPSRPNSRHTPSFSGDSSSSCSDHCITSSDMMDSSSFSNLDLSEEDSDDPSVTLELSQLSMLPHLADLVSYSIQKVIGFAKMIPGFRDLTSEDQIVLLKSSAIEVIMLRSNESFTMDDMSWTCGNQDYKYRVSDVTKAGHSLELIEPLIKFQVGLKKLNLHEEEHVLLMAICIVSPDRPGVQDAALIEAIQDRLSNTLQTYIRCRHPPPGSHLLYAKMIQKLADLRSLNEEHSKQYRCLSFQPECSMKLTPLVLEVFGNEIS
Settings: relative to 1,25(OH)2D3
Measured attribute: VDR affinity, % of that of 1,25(OH)2D3 (%)
Give bare numbers, in %.

See these solved cases before continuing.
C=C1[C@H](O)CC(=C/C=C2\CCC[C@]3(C)[C@@H]([C@H](C)CC#C[C@](O)(CCCC)C45CC6CC(CC(C6)C4)C5)CC[C@@H]23)C[C@H]1O; 23
C=C1[C@H](O)CC(=C/C=C2\CCC[C@]3(C)[C@@H]([C@H](C)CC#C[C@@](O)(CCCC)C45CC6CC(CC(C6)C4)C5)CC[C@@H]23)C[C@H]1O; 2

Each compound below has a recorded value; state its VDR affinity, % of that of 1,25(OH)2D3.
1. C=C1[C@H](O)CC(=C/C=C2\CCC[C@]3(C)[C@@H]([C@H](C)CC#C[C@@](O)(CC)C45CC6CC(CC(C6)C4)C5)CC[C@@H]23)C[C@H]1O
2. C=C1[C@H](O)CC(=C/C=C2\CCC[C@]3(C)[C@@H]([C@H](C)CC#C[C@@](C)(O)C45CC6CC(CC(C6)C4)C5)CC[C@@H]23)C[C@H]1O
3. C=C1[C@H](O)CC(=C/C=C2\CCC[C@]3(C)[C@@H]([C@H](C)CC#C[C@](O)(CC)C45CC6CC(CC(C6)C4)C5)CC[C@@H]23)C[C@H]1O
4. C=C1[C@H](O)CC(=C/C=C2\CCC[C@]3(C)[C@@H]([C@H](C)CC#C[C@](C)(O)C45CC6CC(CC(C6)C4)C5)CC[C@@H]23)C[C@H]1O

1. 6
2. 67
3. 27
4. 6

* * *

Please respond with reported IC50 for every item in the list.
Biological target: recombinant hVDR-LBD (Homo sapiens, UniProt P11473)
Sequence (P11473 140-427): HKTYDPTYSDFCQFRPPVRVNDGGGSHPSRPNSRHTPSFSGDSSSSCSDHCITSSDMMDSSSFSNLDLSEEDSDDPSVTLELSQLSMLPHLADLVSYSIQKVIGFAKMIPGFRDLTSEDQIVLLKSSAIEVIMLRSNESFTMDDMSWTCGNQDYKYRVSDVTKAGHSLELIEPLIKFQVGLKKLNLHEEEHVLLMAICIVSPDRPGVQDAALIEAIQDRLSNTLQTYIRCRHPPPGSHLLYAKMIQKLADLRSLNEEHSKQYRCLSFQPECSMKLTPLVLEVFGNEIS
Assay: biochemical
Give bare numbers, in nM.

C=C1[C@H](O)CC(=C/C=C2\CCC[C@]3(C)[C@@H]([C@H](C)CC#C[C@](O)(CC)C45CC6CC(CC(C6)C4)C5)CC[C@@H]23)C[C@H]1O; 1.3

For each entry beneath this line, provide reported IC50.
1. C=C1[C@H](O)CC(=C/C=C2\CCC[C@]3(C)[C@@H]([C@H](C)CC#C[C@@](C)(O)C45CC6CC(CC(C6)C4)C5)CC[C@@H]23)C[C@H]1O
2. C=C1[C@H](O)CC(=C/C=C2\CCC[C@]3(C)[C@@H]([C@H](C)CC#C[C@@](O)(CCCC)C45CC6CC(CC(C6)C4)C5)CC[C@@H]23)C[C@H]1O

1. 0.6
2. 23.4

Hello, I would appreciate it if you could give IC50 for each entry below.
1. C=C1[C@H](O)CC(=C/C=C2\CCC[C@]3(C)[C@@H]([C@H](C)CC#C[C@](C)(O)C45CC6CC(CC(C6)C4)C5)CC[C@@H]23)C[C@H]1O
2. C=C1[C@H](O)CC(=C/C=C2\CCC[C@]3(C)[C@@H]([C@H](C)CC#C[C@](O)(CCCC)C45CC6CC(CC(C6)C4)C5)CC[C@@H]23)C[C@H]1O

1: 6.2; 2: 1.6

In plain terms, C=C1[C@H](O)CC(=C/C=C2\CCC[C@]3(C)[C@@H]([C@H](C)CC#C[C@@](O)(CC)C45CC6CC(CC(C6)C4)C5)CC[C@@H]23)C[C@H]1O has a documented IC50 of 6.7

* * *

target: UniProt P11473; assay: Mammalian two-hybrid assay, interaction of the VDR with RXRα
Kindly supply the reported pEC50 values for the records listed here.
Give bare numbers, as −log10 of the molar value.

C=C1[C@H](O)CC(=C/C=C2\CCC[C@]3(C)[C@@H]([C@H](C)CC#C[C@](C)(O)C45CC6CC(CC(C6)C4)C5)CC[C@@H]23)C[C@H]1O; 8.96
C=C1[C@H](O)CC(=C/C=C2\CCC[C@]3(C)[C@@H]([C@H](C)CC#C[C@@](O)(CC)C45CC6CC(CC(C6)C4)C5)CC[C@@H]23)C[C@H]1O; 8.96
C=C1[C@H](O)CC(=C/C=C2\CCC[C@]3(C)[C@@H]([C@H](C)CC#C[C@@](O)(CCCC)C45CC6CC(CC(C6)C4)C5)CC[C@@H]23)C[C@H]1O; 8.28

For each listed entry, give its pEC50.
1. C=C1[C@H](O)CC(=C/C=C2\CCC[C@]3(C)[C@@H]([C@H](C)CC#C[C@](O)(CC)C45CC6CC(CC(C6)C4)C5)CC[C@@H]23)C[C@H]1O
2. C=C1[C@H](O)CC(=C/C=C2\CCC[C@]3(C)[C@@H]([C@H](C)CC#C[C@@](C)(O)C45CC6CC(CC(C6)C4)C5)CC[C@@H]23)C[C@H]1O

1: 8.96; 2: 10.00

* * *

Target: hVDR (Homo sapiens)
Construct: expressed in transfected cells; host or cells: HEK293
Assay: VDR transactivation luciferase reporter assay in HEK293 cells (SPP×3-tk-LUC)
Format: cell-based
Conditions: this study, read-out: Transcriptional Activity % Efficacy of That of 1 (converted)
Procedure: The transcriptional activity of the 25-alkylvitamin D analogs on the VDR was evaluated via a luciferase reporter assay in HEK293 human kidney cells transfected with an hVDR expression vector and a luciferase reporter with mouse osteopontin vitamin D response elements (VDREs, SPP×3-tk-LUC). […]
Measured attribute: Emax (%)
Numbers only, in %.

C=C1[C@H](O)CC(=C/C=C2\CCC[C@]3(C)[C@@H]([C@H](C)CC#C[C@@](C)(O)C45CC6CC(CC(C6)C4)C5)CC[C@@H]23)C[C@H]1O; 101

For every item in the list below, what is its measured Emax?
1. C=C1[C@H](O)CC(=C/C=C2\CCC[C@]3(C)[C@@H]([C@H](C)CC#C[C@@](O)(CCCC)C45CC6CC(CC(C6)C4)C5)CC[C@@H]23)C[C@H]1O
2. C=C1[C@H](O)CC(=C/C=C2\CCC[C@]3(C)[C@@H]([C@H](C)CC#C[C@](O)(CC)C45CC6CC(CC(C6)C4)C5)CC[C@@H]23)C[C@H]1O
3. C=C1[C@H](O)CC(=C/C=C2\CCC[C@]3(C)[C@@H]([C@H](C)CC#C[C@](C)(O)C45CC6CC(CC(C6)C4)C5)CC[C@@H]23)C[C@H]1O
4. C=C1[C@H](O)CC(=C/C=C2\CCC[C@]3(C)[C@@H]([C@H](C)CC#C[C@@](O)(CC)C45CC6CC(CC(C6)C4)C5)CC[C@@H]23)C[C@H]1O
5. C=C1[C@H](O)CC(=C/C=C2\CCC[C@]3(C)[C@@H]([C@H](C)CC#C[C@](O)(CCCC)C45CC6CC(CC(C6)C4)C5)CC[C@@H]23)C[C@H]1O

1: 83; 2: 104; 3: 78; 4: 90; 5: 95

* * *

Target: hVDR (Homo sapiens, UniProt P11473)
Construct: expressed in transfected cells; host or cells: HEK293
Experiment: VDR transactivation luciferase reporter assay in HEK293 cells (SPP×3-tk-LUC)
Assay type: cell-based
Settings: read-out: Transcriptional activity EC50
Procedure: The transcriptional activity of the 25-alkylvitamin D analogs on the VDR was evaluated via a luciferase reporter assay in HEK293 human kidney cells transfected with an hVDR expression vector and a luciferase reporter with mouse osteopontin vitamin D response elements (VDREs, SPP×3-tk-LUC). […]
Measured attribute: pEC50
Give bare numbers, as −log10 of the molar value.

Below is a list of compounds. For each, state its recorded pEC50.
1. C=C1[C@H](O)CC(=C/C=C2\CCC[C@]3(C)[C@@H]([C@H](C)CC#C[C@@](O)(CCCC)C45CC6CC(CC(C6)C4)C5)CC[C@@H]23)C[C@H]1O
2. C=C1[C@H](O)CC(=C/C=C2\CCC[C@]3(C)[C@@H]([C@H](C)CC#C[C@](C)(O)C45CC6CC(CC(C6)C4)C5)CC[C@@H]23)C[C@H]1O
3. C=C1[C@H](O)CC(=C/C=C2\CCC[C@]3(C)[C@@H]([C@H](C)CC#C[C@@](O)(CC)C45CC6CC(CC(C6)C4)C5)CC[C@@H]23)C[C@H]1O
4. C=C1[C@H](O)CC(=C/C=C2\CCC[C@]3(C)[C@@H]([C@H](C)CC#C[C@](O)(CCCC)C45CC6CC(CC(C6)C4)C5)CC[C@@H]23)C[C@H]1O

[8.58, 9.28, 8.63, 9.21]
